- system name: Toxin B (TcdB) glycohydrolase, Clostridioides difficile 630
- method: TcdB glycohydrolase inhibitors, dose response, biochemical, cherry-pick, plate reader (AID 720512)
- recorded conditions: recombinant TcdB glycohydrolase activity, at 19.5 µM (top of the series)
Active and inactive are the calls of the source. No rule for the calls is given here.
measurement type: activity change, negative = inhibition

molecule: CC(C)C12NC(=O)NC(=O)N1CCS2 (stereo unspecified)
activity change, negative = inhibition: inactive
//
molecule: COc1ccccc1Oc1cn[nH]c1-c1ccc(O)cc1O
activity change, negative = inhibition: inactive
//
molecule: Nc1ccccc1-c1nc2ccncc2[nH]1
activity change, negative = inhibition: inactive
//
molecule: CN(C)c1ccc(/C=C/c2cccc[n+]2[O-])cc1
activity change, negative = inhibition: inactive
//
molecule: CCC(=O)c1cn(CC(=O)Nc2cccc(C)c2C)c2ccccc12
activity change, negative = inhibition: inactive

[ask] # get_value(readout='activity change, negative = inhibition', item= CNC(=O)C[C@H]1CC[C@@H]2[C@H](COc3ccc(NC(=O)c4ccc(OC)cc4)cc3C(=O)N2C)O1 )
[reply] inactive

Origin of measurements: PubChem BioAssay AID720512
